- STUDY_TARGET: Replicase polyprotein 1ab (Severe acute respiratory syndrome coronavirus 2)
- PROTOCOL_SUMMARY: Inhibition of SARS-CoV-2 3CLpro using Dabcyl-KTSAVLQSGFRKM-Glu(Edans) as substrate preincubated for 60 mins in presence of GSH followed by substrate addition and measured after 30 mins by FRET assay
- CONDITION_CONTEXT: read-out: IC50
ASSAY_READOUT: IC50 (nM)

INSERT INTO assay_data (smiles_record, measure_unit, experimental_value) VALUES
  ('CSc1nc2cc3c(cc2n1C(=O)c1ccc(C)cc1)OCCO3', 'nM', 390);

###

- STUDY_TARGET: Replicase polyprotein 1ab (Severe acute respiratory syndrome coronavirus 2)
- PROTOCOL_SUMMARY: Inhibition of SARS-CoV-2 3CLpro using Dabcyl-KTSAVLQSGFRKM-Glu(Edans) as substrate at 100 uM preincubated for 1 hrs in presence of 2 mM GSH followed by substrate addition and measured after 30 mins by FRET assay relative to control
- CONDITION_CONTEXT: time 1.5 hrs
ASSAY_READOUT: inhibition (%)

INSERT INTO assay_data (smiles_record, assay_readout, experimental_value) VALUES
  ('Cc1ccc(C(=O)n2c(Cl)nc3ccccc32)cc1', 'inhibition', 61),
  ('CSc1nc2cc(C)c(C)cc2n1C(=O)c1ccc(C)cc1', 'inhibition', 68),
  ('CSc1nc2ccccc2n1C(=O)C1CC1', 'inhibition', 61),
  ('Cc1ccc(C(=O)n2c(CC#N)nc3ccccc32)cc1', 'inhibition', 68);

Data provenance is ChEMBL document CHEMBL5608212.
